Experiment: Volume of distribution at steady state in beagle dog plasma at 0.4 mg/kg, iv and 0.8 mg/kg, po by LC-MS/MS method
Assay type: ADME, organism-based, Canis lupus familiaris
Settings: read-out: Vdss
measure: Vd (L/kg)

# smiles-repr, measure, val
measured = [
    ("COC(=O)Nc1ccc(-c2cc([C@H](Cc3ccccc3)NC(=O)[C@H]3CC[C@H](CN)CC3)[nH]c(=O)c2)cc1", "Vd", 0.8),
]

----------
Assay: AUC in beagle dog plasma at 0.2 mg/kg, iv and 0.2 mg/kg, po by LC-MS/MS method
Format: ADME, organism-based, Canis lupus familiaris
Reported AUC values are given for each entry in this list.

# smiles-repr, AUC
measured = [
    ("COC(=O)Nc1ccc(-c2c[nH]c([C@H](Cc3ccccc3)NC(=O)/C=C/c3cc(Cl)ccc3-n3cnnn3)n2)cc1", "0.03 µM·h"),
    ("COC(=O)Nc1ccc(-c2cc([C@H](Cc3ccccc3)NC(=O)/C=C/c3cc(Cl)ccc3-n3cnnn3)ncn2)cc1", "0.23 µM·h"),
]
